Target: human TLR7 (Homo sapiens)
Construct: Human plasmacytoid dendritic cells were plated into 96 well plates; endogenous in cells
Sequence (Q9NYK1 27-1049): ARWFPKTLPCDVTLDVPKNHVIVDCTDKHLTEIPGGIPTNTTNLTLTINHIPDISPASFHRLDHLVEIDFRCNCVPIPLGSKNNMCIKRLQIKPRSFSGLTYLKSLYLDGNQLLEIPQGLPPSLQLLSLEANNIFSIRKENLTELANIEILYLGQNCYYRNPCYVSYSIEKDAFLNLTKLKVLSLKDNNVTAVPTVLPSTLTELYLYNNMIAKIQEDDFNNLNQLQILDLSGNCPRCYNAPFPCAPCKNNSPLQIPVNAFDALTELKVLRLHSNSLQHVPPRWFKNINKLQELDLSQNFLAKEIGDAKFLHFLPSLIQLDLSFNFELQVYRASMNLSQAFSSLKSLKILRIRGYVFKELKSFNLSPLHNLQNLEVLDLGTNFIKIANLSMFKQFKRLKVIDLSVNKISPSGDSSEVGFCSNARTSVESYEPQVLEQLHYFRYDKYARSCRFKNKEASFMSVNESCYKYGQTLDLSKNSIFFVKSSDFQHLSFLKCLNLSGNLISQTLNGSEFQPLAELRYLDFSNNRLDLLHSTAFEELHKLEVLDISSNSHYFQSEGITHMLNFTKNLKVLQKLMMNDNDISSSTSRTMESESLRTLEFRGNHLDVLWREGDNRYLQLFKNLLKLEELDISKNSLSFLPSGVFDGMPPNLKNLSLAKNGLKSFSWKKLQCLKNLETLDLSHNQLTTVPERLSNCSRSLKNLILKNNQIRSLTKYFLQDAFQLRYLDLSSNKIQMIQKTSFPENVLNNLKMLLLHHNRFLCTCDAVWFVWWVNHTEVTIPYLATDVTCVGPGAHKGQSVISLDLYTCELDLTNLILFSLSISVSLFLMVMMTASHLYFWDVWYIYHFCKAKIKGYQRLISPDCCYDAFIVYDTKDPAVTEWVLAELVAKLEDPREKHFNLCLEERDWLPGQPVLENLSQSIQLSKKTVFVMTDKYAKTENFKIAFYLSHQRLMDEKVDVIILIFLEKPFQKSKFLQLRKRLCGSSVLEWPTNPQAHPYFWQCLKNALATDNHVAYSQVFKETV
Test: Inhibition of human TLR7 in human plasmacytoid dendritic cells (interferon-alpha ELISA)
Details: agonist heat inactivated influenza virus, 24 hours
ASSAY METRIC: IC50 (µM)

[[record]]
query_smiles = "Cc1ccc(-n2nc3c(N4CCC(C(=O)NCCCc5c[nH]cn5)CC4)nnc(C)c3c2C)cc1"
sign_qualifier = ">"
quantitative_result = 10

[[record]]
query_smiles = "Cc1ccc(-n2nc3c(N4CCC(CCC(=O)NCCN(C)C)CC4)nnc(C)c3c2C)cc1"
sign_qualifier = ">"
quantitative_result = 10

[[record]]
query_smiles = "Cc1ccc(-n2nc3c(N4CCC(C(=O)NCCCN(C)Cc5ccccc5)CC4)nnc(C)c3c2C)cc1"
sign_qualifier = "="
quantitative_result = 2.97

[[record]]
query_smiles = "Cc1ccc(-n2nc3c(N4CCC(C(=O)N5CCN(Cc6ccccc6)CC5)CC4)nnc(C)c3c2C)cc1"
sign_qualifier = "="
quantitative_result = 9.93

[[record]]
query_smiles = "Cc1ccc(-n2nc3c(N4CCC(C(=O)NC5CN(Cc6ccccc6)C5)CC4)nnc(C)c3c2C)cc1"
sign_qualifier = "="
quantitative_result = 3.36

[[record]]
query_smiles = "Cc1ccc(-n2nc3c(N4CCC(C(=O)NCC(C)(C)CNc5ccccc5)CC4)nnc(C)c3c2C)cc1"
sign_qualifier = ">"
quantitative_result = 10

[[record]]
query_smiles = "Cc1ccc(-n2nc3c(N4CCC(C(=O)NCCCN(C)C)CC4)nnc(C)c3c2C)cc1"
sign_qualifier = "="
quantitative_result = 2.23


###

Target: human TLR8 (Homo sapiens, UniProt Q9NR97)
Construct: endogenous in cells; host or cells: primary human monocytes (CD14 microbeads) from buffy coats of healthy donors
Sequence (Q9NR97 27-1041): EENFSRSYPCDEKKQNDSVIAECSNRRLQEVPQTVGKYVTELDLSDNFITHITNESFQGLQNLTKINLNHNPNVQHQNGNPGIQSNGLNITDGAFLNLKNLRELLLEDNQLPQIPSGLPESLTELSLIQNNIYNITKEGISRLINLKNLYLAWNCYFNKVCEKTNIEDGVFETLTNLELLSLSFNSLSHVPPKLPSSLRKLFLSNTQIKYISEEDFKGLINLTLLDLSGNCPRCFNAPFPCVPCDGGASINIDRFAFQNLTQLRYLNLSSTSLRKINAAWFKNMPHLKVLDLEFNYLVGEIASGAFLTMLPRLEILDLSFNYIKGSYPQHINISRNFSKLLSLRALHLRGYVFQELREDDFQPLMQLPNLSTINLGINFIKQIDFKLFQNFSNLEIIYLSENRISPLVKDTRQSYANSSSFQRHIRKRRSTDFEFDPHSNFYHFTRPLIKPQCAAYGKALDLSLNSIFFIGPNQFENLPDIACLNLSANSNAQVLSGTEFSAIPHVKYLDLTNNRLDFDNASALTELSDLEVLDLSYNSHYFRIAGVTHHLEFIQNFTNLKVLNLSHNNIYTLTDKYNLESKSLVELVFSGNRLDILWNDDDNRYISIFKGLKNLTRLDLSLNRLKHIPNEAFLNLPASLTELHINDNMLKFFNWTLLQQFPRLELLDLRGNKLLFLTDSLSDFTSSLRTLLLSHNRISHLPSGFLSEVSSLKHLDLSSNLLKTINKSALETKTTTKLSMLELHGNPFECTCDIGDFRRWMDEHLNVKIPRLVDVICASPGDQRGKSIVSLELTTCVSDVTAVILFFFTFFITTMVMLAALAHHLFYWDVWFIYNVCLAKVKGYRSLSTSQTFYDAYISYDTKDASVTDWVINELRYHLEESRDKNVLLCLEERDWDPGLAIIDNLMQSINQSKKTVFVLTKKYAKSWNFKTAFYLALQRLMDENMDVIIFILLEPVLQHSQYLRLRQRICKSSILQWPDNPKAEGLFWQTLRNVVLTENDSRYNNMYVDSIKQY
Test: Inhibition of human TLR8 in human monocytes (TNF-alpha / IL-1 beta ELISA)
Format: cell-based
Conditions: human monocytes, agonist ORN8L 100 μg/mL, TNF-alpha readout, 24 hours; read-out: Human TLR8 IC50 TNF-a
pIC50: −log10 of the molar value.
Entries and their measured pIC50 follow.
ASSAY METRIC: pIC50

[[record]]
compound = "Cc1ccc(-n2nc3c(N4CCC(C(=O)NCCCN(C)Cc5ccccc5)CC4)nnc(C)c3c2C)cc1 [Compound No. 1]"
sign_qualifier = "="
quantitative_result = 6.21

[[record]]
compound = "Cc1ccc(-n2nc3c(N4CCC(C(=O)NCCCN5CCCC5)CC4)nnc(C)c3c2C)cc1 [15x]"
sign_qualifier = "="
quantitative_result = 5.34

[[record]]
compound = "Cc1ccc(-n2nc3c(N4CCCC(C(=O)NCCN(C)C)C4)nnc(C)c3c2C)cc1 (stereo not shown) [45x]"
sign_qualifier = "≤"
quantitative_result = 4.70

[[record]]
compound = "Cc1ccc(-n2nc3c(N4CCC(C(=O)NCCCc5ccccc5)CC4)nnc(C)c3c2C)cc1 [2-6]"
sign_qualifier = "<"
quantitative_result = 5.00


###

Biological target: human TLR9 (Homo sapiens)
Construct: endogenous in cells; host or cells: primary human B cells (CD19 microbeads) from buffy coats of healthy donors
Sequence (Q9NR96 26-1032): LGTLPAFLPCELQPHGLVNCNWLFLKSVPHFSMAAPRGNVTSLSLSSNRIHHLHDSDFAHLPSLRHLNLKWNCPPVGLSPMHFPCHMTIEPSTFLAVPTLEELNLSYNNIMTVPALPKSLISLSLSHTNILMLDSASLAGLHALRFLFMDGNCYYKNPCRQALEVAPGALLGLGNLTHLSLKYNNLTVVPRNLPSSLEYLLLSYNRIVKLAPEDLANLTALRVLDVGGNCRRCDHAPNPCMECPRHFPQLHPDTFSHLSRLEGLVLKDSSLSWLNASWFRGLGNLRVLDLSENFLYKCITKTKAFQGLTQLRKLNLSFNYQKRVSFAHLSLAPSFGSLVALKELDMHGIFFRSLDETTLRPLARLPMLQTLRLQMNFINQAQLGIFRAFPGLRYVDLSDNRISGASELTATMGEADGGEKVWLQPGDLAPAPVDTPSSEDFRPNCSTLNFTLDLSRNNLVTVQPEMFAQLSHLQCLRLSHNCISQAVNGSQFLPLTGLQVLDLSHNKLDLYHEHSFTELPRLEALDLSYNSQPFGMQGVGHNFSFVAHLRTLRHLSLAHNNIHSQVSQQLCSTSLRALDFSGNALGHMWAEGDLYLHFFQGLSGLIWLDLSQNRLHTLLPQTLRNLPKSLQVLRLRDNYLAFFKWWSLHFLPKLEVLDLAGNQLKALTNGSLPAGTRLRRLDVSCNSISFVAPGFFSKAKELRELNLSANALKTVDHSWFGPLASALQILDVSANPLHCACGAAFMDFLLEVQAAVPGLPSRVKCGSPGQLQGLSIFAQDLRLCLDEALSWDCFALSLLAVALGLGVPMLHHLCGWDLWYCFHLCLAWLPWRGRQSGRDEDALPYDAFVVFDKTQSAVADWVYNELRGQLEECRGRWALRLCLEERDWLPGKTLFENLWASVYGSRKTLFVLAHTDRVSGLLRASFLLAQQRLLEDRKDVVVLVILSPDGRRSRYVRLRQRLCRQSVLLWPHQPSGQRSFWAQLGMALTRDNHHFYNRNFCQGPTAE
Test: Inhibition of human TLR9 in human B cells (IL-6 ELISA)
Assay type: cell-based
Details: human B cells, agonist 1018 ISS 1 μM, IL-6 readout, 48 hours; range about 0.01 to 10 μM; read-out: Human TLR9 IC50
pIC50: −log10 of the molar value.
ASSAY METRIC: pIC50

[[record]]
compound = "CNC(=O)C1CCN(c2nnc(C)c3c(C)n(-c4ccc(C)cc4)nc23)CC1 [2-2]"
quantitative_result = 5.42

[[record]]
compound = "Cc1ccc(-n2nc3c(N4CCC(CCC(=O)NC5CN(C)C5)CC4)nnc(C)c3c2C)cc1 [compound 66]"
quantitative_result = 6.74

[[record]]
compound = "Cc1ccc(-n2nc3c(N4CCC(C(=O)NCCCN5CCCC5)CC4)nnc(C)c3c2C)cc1 [15x]"
quantitative_result = 6.39

[[record]]
compound = "Cc1ccc(-n2nc3c(N4CCC(C(=O)N5CCC6(CN(C)C6)C5)CC4)nnc(C)c3c2C)cc1 [compound 75]"
quantitative_result = 7.60


###

Entries and their measured pIC50 follow.
Biological target: human TLR8 (Homo sapiens)
Construct: endogenous in cells; host or cells: primary human monocytes (CD14 microbeads) from buffy coats of healthy donors
Sequence (Q9NR97 27-1041): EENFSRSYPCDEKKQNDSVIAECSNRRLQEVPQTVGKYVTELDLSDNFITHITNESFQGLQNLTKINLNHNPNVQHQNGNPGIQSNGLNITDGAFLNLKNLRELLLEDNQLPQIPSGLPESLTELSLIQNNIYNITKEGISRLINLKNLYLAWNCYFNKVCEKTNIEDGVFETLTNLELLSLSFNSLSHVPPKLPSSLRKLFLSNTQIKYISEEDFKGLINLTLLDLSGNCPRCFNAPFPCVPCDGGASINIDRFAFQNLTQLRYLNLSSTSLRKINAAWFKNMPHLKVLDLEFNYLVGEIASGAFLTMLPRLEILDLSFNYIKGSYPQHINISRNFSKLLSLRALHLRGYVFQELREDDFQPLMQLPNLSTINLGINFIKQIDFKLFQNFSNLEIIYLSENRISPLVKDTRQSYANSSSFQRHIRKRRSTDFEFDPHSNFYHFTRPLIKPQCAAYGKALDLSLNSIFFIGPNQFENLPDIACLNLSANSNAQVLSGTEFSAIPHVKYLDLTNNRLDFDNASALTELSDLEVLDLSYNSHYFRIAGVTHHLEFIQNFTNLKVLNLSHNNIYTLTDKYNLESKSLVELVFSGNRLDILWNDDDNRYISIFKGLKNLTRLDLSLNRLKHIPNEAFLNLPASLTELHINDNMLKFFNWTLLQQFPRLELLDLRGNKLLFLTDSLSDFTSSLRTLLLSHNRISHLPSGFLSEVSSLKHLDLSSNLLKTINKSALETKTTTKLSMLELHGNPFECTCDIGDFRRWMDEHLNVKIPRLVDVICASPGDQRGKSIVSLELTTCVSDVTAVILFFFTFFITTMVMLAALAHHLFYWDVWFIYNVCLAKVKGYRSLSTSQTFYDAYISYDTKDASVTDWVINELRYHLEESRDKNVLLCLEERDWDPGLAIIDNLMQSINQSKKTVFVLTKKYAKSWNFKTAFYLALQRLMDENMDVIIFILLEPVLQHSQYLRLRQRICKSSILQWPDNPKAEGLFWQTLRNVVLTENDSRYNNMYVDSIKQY
Assay: Inhibition of human TLR8 in human monocytes (TNF-alpha / IL-1 beta ELISA)
Type: cell-based
Details: human monocytes, agonist ORN8L 100 μg/mL, TNF-alpha readout, 24 hours; read-out: Human TLR8 IC50 TNF-a
pIC50: −log10 of the molar value.
ASSAY METRIC: pIC50

[[record]]
molecule = "Cc1ccc(-n2nc3c(N4CCC(C(=O)NCCCCCN(C)C)CC4)nnc(C)c3c2C)cc1"
result = "< 5.00"

[[record]]
molecule = "Cc1ccc(-n2nc3c(N4CCCC(C(=O)NCCNc5ccccc5)C4)nnc(C)c3c2C)cc1 (stereo not shown)"
result = "≤ 4.70"

[[record]]
molecule = "Cc1ccc(-n2nc3c(N4CCC(C(=O)N5CCN(Cc6ccccc6)CC5)CC4)nnc(C)c3c2C)cc1"
result = 6.17

[[record]]
molecule = "Cc1ccc(-n2cc3cnnc(N4CCC(C(=O)NCCN(C)C)CC4)c3n2)cc1"
result = "≤ 4.70"


Cited source: patent US11370794B2
